- Tested on: MDA-MB-231
- Procedure Summary: Antimetastatic activity against human MDA-MB-231 cells assessed as inhibition of cell migration after 24 hrs by wound healing assay
- Assay type: functional, cell-based
- Applied Conditions: MDA-MB-231, 24 h
I'd be grateful if you could share measured IC50 for these entries.

[ask] # query: IC50 of entry COc1ccccc1N1C(=O)CSC1c1cccc(C(=O)NCCc2ccc(Cl)cc2)c1 (configuration not stated)
[reply] < 50 nM

[ask] So what's the measured IC50 for this one? COc1ccccc1N1C(=O)CSC1c1cccc(C(=O)NCCc2ccc(Br)cc2)c1 (configuration not stated)
[reply] < 50 nM
